# Test system: MM.1S cells (human multiple myeloma cells)
# run_description: Tumor cell proliferation inhibition, CCK-8
# Format: cell-based
# condition: MM1.S, read-out: inhibitory activity (IC50, nM) MM.1S
quantity_measured: IC50

What measured IC50 goes with Nc1cccc2c1CN(C1CCC(=O)NC1=O)C2=O (stereo not shown) [lenalidomide, reference compound] ?
> 10000 nM

---

# test_target: human Cereblon WT GST-tagged protein (Homo sapiens (Human), UniProt Q96SW2)
# Sequence (Q96SW2 whole entry): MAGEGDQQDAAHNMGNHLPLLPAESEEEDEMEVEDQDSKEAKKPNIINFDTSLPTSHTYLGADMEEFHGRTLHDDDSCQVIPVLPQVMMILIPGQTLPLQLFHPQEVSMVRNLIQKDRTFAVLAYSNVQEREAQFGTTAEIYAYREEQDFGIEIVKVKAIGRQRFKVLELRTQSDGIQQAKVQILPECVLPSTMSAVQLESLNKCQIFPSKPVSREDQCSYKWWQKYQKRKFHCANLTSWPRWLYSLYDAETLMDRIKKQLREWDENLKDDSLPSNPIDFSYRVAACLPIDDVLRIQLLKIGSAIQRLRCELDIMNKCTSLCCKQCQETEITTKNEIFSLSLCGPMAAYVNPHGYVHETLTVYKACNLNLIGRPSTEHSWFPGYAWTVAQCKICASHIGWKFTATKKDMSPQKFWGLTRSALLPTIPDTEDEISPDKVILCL
quantity_measured: IC50

Reference set (5 entries):
[
  {
    "molecule": "O=C1CCC(N2Cc3cc(CN4CCC5(CC4)CCN(C(c4ccccc4)c4ccccc4)CC5)ccc3C2=O)C(=O)N1 (stereo not drawn)",
    "IC50": "0.5 to 1 µM"
  },
  {
    "molecule": "O=C1CCC(N2Cc3cc(C(=O)N4C[C@H]5C[C@@H]4CN5C(c4ccccc4)c4ccccc4)ccc3C2=O)C(=O)N1 (stereo partly drawn)",
    "IC50": "< 0.5 µM"
  },
  {
    "molecule": "O=C1CCC(N2Cc3cc(CCN4CCN(C(c5ccccc5)c5ccccc5)CC4)ccc3C2=O)C(=O)N1 (stereo not drawn)",
    "IC50": "< 0.5 µM"
  },
  {
    "molecule": "O=C1CCC(N2Cc3cc(CN4C5CCC4CN(C(c4ccccc4)c4ccccc4)C5)c(F)cc3C2=O)C(=O)N1 (stereo not drawn)",
    "IC50": "1 to 1.9 µM"
  },
  {
    "molecule": "O=C1CCC(N2Cc3ccc(CN4CCN(C(c5ccc(F)cc5)c5ccc(F)cc5)CC4)cc3C2=O)C(=O)N1 (stereo not drawn)",
    "IC50": "0.5 to 1 µM"
  }
]

Go through the list and state IC50 for each entry.
1. CC1CN(C(c2ccccc2)c2ccccc2)CC(C)N1Cc1cc2c(cc1F)C(=O)N(C1CCC(=O)NC1=O)C2 (stereo not drawn)
2. O=C1CCC(N2Cc3cc(CN4CCN(C(c5ccccn5)c5ccccn5)CC4)cc(F)c3C2=O)C(=O)N1 (stereo not drawn)
3. O=C1CCC(N2Cc3cc(NC4CCC(N(c5ccccc5)c5ccccc5)CC4)ccc3C2=O)C(=O)N1 (stereo not drawn)

["< 0.5 µM", "1 to 1.9 µM", "1 to 1.9 µM"]

---

pIC50: −log10 of the molar value.
As an illustration, consider measured pIC50 for compounds on UniProt Q96SW2.

Reference set (4 entries):
[
  {
    "compound": "O=C1CCC(N2Cc3cc(CN4CCN(C(c5ccccc5)c5ccccc5)CC4)c(F)cc3C2=O)C(=O)N1 (stereo not drawn)",
    "test_target": "UniProt Q96SW2",
    "pIC50": "6.00 to 6.30"
  },
  {
    "compound": "O=C1CCC(N2Cc3cc(N4C5CCC4CN(C(c4ccccc4)c4ccccc4)C5)ccc3C2=O)C(=O)N1 (stereo not drawn)",
    "test_target": "UniProt Q96SW2",
    "pIC50": "6.00 to 6.30"
  },
  {
    "compound": "O=C1CCC(N2Cc3cc(CN4CC5CN(C(c6ccccc6)c6ccccc6)CC5C4)cc(F)c3C2=O)C(=O)N1 (stereo not drawn)",
    "test_target": "UniProt Q96SW2",
    "pIC50": "> 6.30"
  },
  {
    "compound": "O=C1CCC(N2Cc3cc(N4CC5CCC(C4)N5C(c4ccccc4)c4ccccc4)ccc3C2=O)C(=O)N1 (stereo not drawn)",
    "test_target": "UniProt Q96SW2",
    "pIC50": "6.00 to 6.30"
  }
]

Go through the list and state pIC50 for each entry.
1. O=C1CCC(N2Cc3cc(C(=O)N4CCC(N(c5ccccc5)c5ccccn5)CC4)cc(F)c3C2=O)C(=O)N1 (stereo not drawn)
2. O=C1CCC(N2C(=O)c3ccc(N4CC5CCC4CN5C(c4ccccc4)c4ccccc4)cc3C2=O)C(=O)N1 (stereo not drawn)
3. O=C1CCC(N2Cc3cc(CN4CCN(C(c5ccc(Cl)cc5)c5ccc(Cl)cc5)CC4)ccc3C2=O)C(=O)N1 (stereo not drawn)
4. O=C1CCC(N2Cc3cc(C(=O)N4CCN(C(c5ccccc5)c5ccccc5)CC4C(F)(F)F)cc(F)c3C2=O)C(=O)N1 (stereo not drawn)

["6.00 to 6.30", "> 6.30", "5.72 to 6.00", "5.72 to 6.00"]

Go through the list and state pIC50 for each entry.
1. CC1(C)CN(Cc2ccc3c(c2)CN(C2CCC(=O)NC2=O)C3=O)CCN1C(c1ccccc1)c1ccccc1 (stereo not drawn)
2. O=C1CCC(N2Cc3cc(CN4CCN([C@@H](c5ccccc5)c5ccccn5)CC4)ccc3C2=O)C(=O)N1 (stereo partly drawn)
3. O=C1CCC(N2Cc3cc(CN4CCC(N(c5ccccc5)c5ccccn5)CC4)ccc3C2=O)C(=O)N1 (stereo not drawn)
4. O=C1CCC(N2Cc3cc(CN4CCN(C(c5cccc(F)c5)c5cccc(F)c5)CC4)c(F)cc3C2=O)C(=O)N1 (stereo not drawn)

["> 6.30", "6.00 to 6.30", "> 6.30", "6.00 to 6.30"]

Go through the list and state pIC50 for each entry.
1. O=C1CCC(N2Cc3cc(C(=O)N4CCN(C(c5ccccc5F)c5ccccc5F)CC4)ccc3C2=O)C(=O)N1 (stereo not drawn)
2. O=C1CCC(N2Cc3c(ccc(CN4CCN(C(c5ccccc5)c5cccnc5)CC4)c3F)C2=O)C(=O)N1 (stereo not drawn)
3. O=C1CCC(N2C(=O)c3ccc(C(=O)N4C5CC4CN(C(c4ccccc4)c4ccccc4)C5)cc3C2=O)C(=O)N1 (stereo not drawn)

1. > 6.30
2. > 6.30
3. 5.72 to 6.00

---

As an illustration, consider measured pIC50 for molecules on human Cereblon WT GST-tagged protein (Homo sapiens (Human), UniProt Q96SW2).
pIC50: −log10 of the molar value.

Reference set (6 entries):
[
  {
    "molecule": "O=C1CCC(N2Cc3cc(CN4CC5(CCN(C(c6ccccc6)c6ccccc6)CC5)C4)ccc3C2=O)C(=O)N1 (stereo not shown)",
    "pIC50": "> 6.30"
  },
  {
    "molecule": "O=C1CCC(N2Cc3cc(C(=O)N4CC5CN(C(c6ccccc6)c6ccccc6)CC5C4)ccc3C2=O)C(=O)N1 (stereo not shown)",
    "pIC50": "6.00 to 6.30"
  },
  {
    "molecule": "O=C1CCC(N2Cc3cc(CN4C5CCC4CN(C(c4ccccc4)c4ccccc4)C5)cc(F)c3C2=O)C(=O)N1 (stereo not shown)",
    "pIC50": "5.72 to 6.00"
  },
  {
    "molecule": "O=C1CCC(N2C(=O)c3ccc(CN4C5CC4CN(C(c4ccccc4)c4ccccc4)C5)cc3C2=O)C(=O)N1 (stereo not shown)",
    "pIC50": "5.72 to 6.00"
  },
  {
    "molecule": "O=C1CCC(N2Cc3cc(CN4CCN(C(c5ccccc5F)c5ccccc5F)CC4)ccc3C2=O)C(=O)N1 (stereo not shown)",
    "pIC50": "> 6.30"
  },
  {
    "molecule": "O=C1CCC(N2Cc3cc(CN4CC5CCC(C4)N5C(c4ccccc4)c4ccccc4)c(F)cc3C2=O)C(=O)N1 (stereo not shown)",
    "pIC50": "6.00 to 6.30"
  }
]

Turning now to a further record.
What measured pIC50 goes with O=C1CCC(N2Cc3cc(CN4C[C@H]5C[C@@H]4CN5C(c4ccccc4)c4ccccc4)ccc3C2=O)C(=O)N1 (stereo partly shown) ?
> 6.30

---

# test_target: human Cereblon WT GST-tagged protein (Homo sapiens (Human))
Exercise: state measured IC50 for each of the molecules provided.

Reference set (5 entries):
[
  {
    "molecule": "O=C1CCC(N2Cc3c(ccc(CN4CC5CCC(C4)N5C(c4ccccc4)c4ccccc4)c3F)C2=O)C(=O)N1 (stereo not drawn)",
    "test_target": "human Cereblon WT GST-tagged protein (Homo sapiens (Human))",
    "IC50": "0.5 to 1 µM"
  },
  {
    "molecule": "O=C1CCC(N2Cc3cc(CN4C5CCC4CN(C(c4ccccc4)c4ccccc4)C5)ccc3C2=O)C(=O)N1 (stereo not drawn)",
    "test_target": "human Cereblon WT GST-tagged protein (Homo sapiens (Human))",
    "IC50": "< 0.5 µM"
  },
  {
    "molecule": "O=C1CCC(N2Cc3cc(CN4CCC(N(c5ccccc5)c5ccccc5)CC4)ccc3C2=O)C(=O)N1 (stereo not drawn)",
    "test_target": "human Cereblon WT GST-tagged protein (Homo sapiens (Human))",
    "IC50": "< 0.5 µM"
  },
  {
    "molecule": "O=C1CCC(N2Cc3c(ccc(CN4CC5(CCN(C(c6ccccc6)c6ccccc6)CC5)C4)c3F)C2=O)C(=O)N1 (stereo not drawn)",
    "test_target": "human Cereblon WT GST-tagged protein (Homo sapiens (Human))",
    "IC50": "0.5 to 1 µM"
  },
  {
    "molecule": "O=C1CCC(N2Cc3cc(CN4CCN(C(c5ccccc5)c5ccccn5)CC4)c(F)cc3C2=O)C(=O)N1 (stereo not drawn)",
    "test_target": "human Cereblon WT GST-tagged protein (Homo sapiens (Human))",
    "IC50": "1 to 1.9 µM"
  }
]

Go through the list and state IC50 for each entry.
1. O=C1CCC(N2Cc3c(ccc(CN4CCN(C(c5ccccc5)c5ccccc5)CC4C(F)(F)F)c3F)C2=O)C(=O)N1 (stereo not drawn)
2. O=C1CCC(N2Cc3cc(CN4CCC(N(c5ccccc5)c5ccccc5)CC4)c(F)cc3C2=O)C(=O)N1 (stereo not drawn)
3. O=C1CCC(N2Cc3cc(CN4CC5CCC(C4)N5C(c4ccccc4)c4ccccc4)cc(F)c3C2=O)C(=O)N1 (stereo not drawn)
4. O=C1CCC(N2Cc3c(CN4CCC(N(c5ccccc5)c5ccccc5)CC4)cccc3C2=O)C(=O)N1 (stereo not drawn)
5. CC1CN(C(c2ccccc2)c2ccccc2)CC(C)N1C(=O)c1cc(F)c2c(c1)CN(C1CCC(=O)NC1=O)C2=O (stereo not drawn)
6. O=C1CCC(N2Cc3cc(CN4CCC(N(c5ccccc5)c5ccccn5)CC4)c(F)cc3C2=O)C(=O)N1 (stereo not drawn)
7. O=C1CCC(N2Cc3cc(C(=O)N4C5CCC4CN(C(c4ccccc4)c4ccccc4)C5)ccc3C2=O)C(=O)N1 (stereo not drawn)

1. 0.5 to 1 µM
2. 0.5 to 1 µM
3. 0.5 to 1 µM
4. < 0.5 µM
5. 0.5 to 1 µM
6. < 0.5 µM
7. 0.5 to 1 µM

Go through the list and state IC50 for each entry.
1. O=C1CCC(N2Cc3cc(CN4CCC(N(c5ccccc5)c5ccccc5)CC4)cc(F)c3C2=O)C(=O)N1 (stereo not drawn)
2. O=C1CCC(N2Cc3c(CN4CCN(C(c5ccccc5)c5ccccc5)CC4)cccc3C2=O)C(=O)N1 (stereo not drawn)
3. O=C1CCC(N2Cc3cc(C(=O)N4CCC(N(c5ccccc5)c5ccccc5)CC4)ccc3C2=O)C(=O)N1 (stereo not drawn)

1: < 0.5 µM; 2: 0.5 to 1 µM; 3: < 0.5 µM
